Molecular target: TbRPA1 DBD-AB (Trypanosoma brucei) (UniProt Q384B5)
Sequence: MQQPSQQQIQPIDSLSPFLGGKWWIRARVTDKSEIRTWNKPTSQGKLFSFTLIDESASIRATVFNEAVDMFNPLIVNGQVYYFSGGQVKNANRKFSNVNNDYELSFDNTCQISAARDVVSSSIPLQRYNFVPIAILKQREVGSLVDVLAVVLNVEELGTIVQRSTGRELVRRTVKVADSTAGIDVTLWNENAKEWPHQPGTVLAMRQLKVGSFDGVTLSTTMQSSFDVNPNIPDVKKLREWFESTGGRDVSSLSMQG
Experiment: MST
Details: 20 mM Tris pH 7.5, 10 mM NaCl, 10 mM MgCl2, 2 mM DTT, 10% glycerol, 0.1 mg/ml BSA, 15 min, room temperature; EMSA 2 nM probe (gel at 4 C), MST 10 nM probe
METRIC_NAME: pKd
One number for each entry, as −log10 of the molar value.

Asked: What pKd appears in the records for this sequence with TbRPA1 DBD-AB (Trypanosoma brucei) (UniProt Q384B5)? TTTTTTTTTTTT [dT12]
Given back: 7.22
